Quick note: these are Ki numbers for system: Human σ1 receptor (Homo sapiens)
Sequence (Q99720 whole entry): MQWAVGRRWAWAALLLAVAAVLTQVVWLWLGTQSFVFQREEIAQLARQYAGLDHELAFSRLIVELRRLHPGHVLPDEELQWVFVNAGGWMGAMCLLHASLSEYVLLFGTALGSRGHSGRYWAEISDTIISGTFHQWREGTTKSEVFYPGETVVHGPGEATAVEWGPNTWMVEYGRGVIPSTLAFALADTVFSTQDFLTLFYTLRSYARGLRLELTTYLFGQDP
reported.metric: Ki

compound="CCCC(c1nc2c(Cl)cc(F)cc2c(=O)n1CC)N1CCCNCC1 (centres unmarked)" measured_value="> 1000 nM"
compound=CCC[C@H](c1nc2cc(F)c(Cl)cc2c(=O)n1CC)N1CCN(C)C[C@@H](C)C1 measured_value="500 to 1000 nM"
compound=CCC[C@@H](c1nc2ccc(Cl)cc2c(=O)n1CC)N1CCN(C)C[C@H](C)C1 measured_value="> 1000 nM"
compound=CCC[C@@H](c1nc2ccc(Br)cc2c(=O)n1CC)N1CCN(C)C[C@H](COC)C1 measured_value="500 to 1000 nM"
compound=CCC[C@H](c1nc2cc(F)c(Br)cc2c(=O)n1CC)N1CCCNCC1 measured_value="> 1000 nM"
compound=CCC[C@H](c1nc2ccc(Cl)cc2c(=O)n1C)N1CCN[C@H](C)CC1 measured_value="500 to 1000 nM"
compound=CCC[C@H](c1nc2cc(F)c(Br)cc2c(=O)n1CC)N1CCN(C)C[C@@H](C)C1 measured_value="500 to 1000 nM"
compound=CCC[C@H](c1nc2ncc(Br)cc2c(=O)n1CC)N1CCNC[C@H](C)C1 measured_value="> 1000 nM"
